activation for assorted compounds
molecular target: Troponin I, cardiac muscle (Homo sapiens) + Troponin T, cardiac muscle (Homo sapiens) + Troponin C, slow skeletal and cardiac muscles (Homo sapiens) (UniProt P19429+P45379+P63316); experiment: cardiac RTF calcium sensitivity activators, confirmation, biochemical, IANBD-TnC fluorescence, triplicate (AID 504383); conditions: IANBD-labeled cardiac RTF, Ca2+ sensitivity fluorescence; at 7.2 µM; hits give high values; scaled from EC20 to saturating calcium; tested at EC20 calcium, 0.472 mM;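 further: 0% = DMSO at 0.472 mM calcium and 100% = DMSO at 2.9 mM calcium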
The campaign covered roughly 2,500 compounds. About 1,200 (48%) were called active. The set was probably picked from earlier hits. The list shows a part of the results.

INSERT INTO results (compound, measurement_kind, observed_measurement) VALUES
  ('c1ccc2c(c1)CN1CCCC1=N2', 'activation', '3.94% (inactive)'),
  ('CCN(CC)c1ccc(/C=C/c2cc(-c3ccccc3)c3ccccc3n2)cc1', 'activation', '19.4% (active)');

Reported activation of O=C(NCC1CCCO1)c1ccc2c(c1)C(=O)N(c1cccc([N+](=O)[O-])c1)C2=O (stereo unspecified) : 31.3% (active)

Reported activation of COc1ccc(N/C=C\C(=O)c2ccc(Br)cc2)cc1OC : 59.4% (active)

Reported activation of COc1ccc(/C=N/NC(=O)c2cccnc2)cc1CN1CCOCC1 : 36.1% (active)

Reported activation of O=C(CCSc1ccccc1)N1CCN(C(=O)c2ccco2)CC1 : 135% (active)

Reported activation of O=C(Cn1cnc2c(cnn2-c2ccccc2)c1=O)Nc1ccc(S(=O)(=O)N2CCOCC2)cc1 : 31% (active)

Reported activation of COC(=O)Cc1ccc(NC(=S)NCCCN2CCOCC2)cc1 : 2.97% (inactive)

###

target: Troponin I, cardiac muscle (Homo sapiens) + Troponin T, cardiac muscle (Homo sapiens) + Troponin C, slow skeletal and cardiac muscles (Homo sapiens) (UniProt P19429+P45379+P63316); assay: cardiac RTF calcium sensitivity activators, confirmation, biochemical, IANBD-TnC fluorescence, triplicate (AID 504383); settings: IANBD-labeled cardiac RTF, Ca2+ sensitivity fluorescence; at 7.2 µM; scaled from EC20 to saturating calcium; tested at EC20 calcium, 0.472 mM;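 further: 0% = DMSO at 0.472 mM calcium and 100% = DMSO at 2.9 mM calcium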
Hit rate of the full screen: of about 2,500 compounds, about 1,200 (48%) were called active.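 Rule for the calls: active = mean activation above the low control average plus 3 SD, as set in the primary screen (cut at about 12% in these data); inactive = the rest.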 So high a share suggests a set chosen from earlier hits. Some of the results follow.
Tick one outcome: active, inactive

Example cases with answers are listed next.
INSERT INTO measurements (molecule, class_assignment) VALUES
  ('C#CCOCCOCCOCCNc1nc(N2CCN(C(=O)CCCCCCCCCCNC(=O)[C@@H](CCSC)n3cc(CCO)nn3)CC2)nc(N2CCN(C(=O)CCCCCCCCCCNC(=O)[C@H](CCSC)n3cc(CCO)nn3)CC2)n1', 'inactive'),
  ('CCOC(=O)COc1c(Cl)cc(C2NC(=S)NC(c3ccccc3)=C2C(C)=O)cc1OC (stereo unspecified)', 'inactive'),
  ('O=C(N/N=C/c1cc(Cl)cc(Cl)c1O)c1ccncc1', 'active'),
  ('CC(C)(CO)NCC#Cc1ccccc1', 'inactive'),
  ('Cc1ccccc1-c1noc(-c2cccs2)n1', 'active');

Per the assay record, what outcome was assigned to CCN(CC)C(=O)C1CCC(CNS(=O)(=O)c2cccc3cccnc23)CC1 (stereo unspecified) ?
inactive

Per the assay record, what outcome was assigned to CCOC(=O)C1=C(C)NC(=O)/C1=C\N(C)C ?
inactive
